biological target: hMMP 1 (Homo sapiens, UniProt P03956); experiment: In vitro metalloprotease inhibition, fluorogenic peptide substrate (recombinant human MMP-1, APMA activated); settings: human MMP-1, room temperature, pH 7.5, 4 μM substrate
Measure Name: IC50 (µM)

CCC(CCS)S(=O)(=O)c1ccc(OC)cc1 (stereo not drawn) : 0.6
COc1ccc(S(=O)(=O)CCS)cc1 : 8
CCCOc1ccc(S(=O)(=O)CCCS)cc1 : 10
COc1ccc(S(=O)(=O)C[C@H](C)CS)cc1 : 6.5
COC(=O)C(S)CCS(=O)(=O)c1ccc(OC)cc1 (racemic) : 4
O=C(NCCN1CCOCC1)C(S)CCS(=O)(=O)c1ccc(Oc2ccccc2)cc1 (stereo not drawn) : 0.37
COc1ccc(S(=O)(=O)CC(CS)NC(C)=O)cc1 (stereo not drawn) : 4
COc1ccc(S(=O)(=O)CCC(C)S)cc1 (racemic) : 8

(1) COc1ccc(S(=O)(=O)C(CCS)Cc2ccccc2)cc1 (stereo not drawn)
(2) COc1ccc(S(=O)(=O)[C@@H]2CCC[C@@H](S)C2)cc1 (relative stereo)
In: // task: argmin of IC50 over [ 1 , 2 ] Selection: enter the item's label.
Out: 1

(a) CCCCOc1ccc(S(=O)(=O)C(CCS)Cc2ccccc2)cc1 (stereo not drawn)
(b) CCCC(CCS)S(=O)(=O)c1ccc(OC)cc1 (stereo not drawn)
(c) CNC(=O)CC(CCS)S(=O)(=O)c1ccc(OC)cc1 (stereo not drawn)
In: Sort low-to-high on IC50, please. Order the labels as requested and list them.
Out: b, c, a

(P) CCCCCC(CCS)S(=O)(=O)c1ccc(OC)cc1 (stereo not drawn)
(Q) COc1ccc(S(=O)(=O)CCC(S)c2ccccc2)cc1 (stereo not drawn)
In: Two entries are listed, P and Q . Which one carries the higher IC50? Reply briefly: the label of your chosen item.
Out: Q

(P) COc1ccc(S(=O)(=O)CC(C)S)cc1 (racemic)
(Q) COc1ccc(S(=O)(=O)CC(CS)NC(=O)CNC(=O)OCc2ccccc2)cc1 (racemic)
In: // pick larger IC50 from pair: P vs Q Kindly give the label for the entry you pick.
Out: P

====

target: hMMP 13 (Homo sapiens, UniProt P45452); assay: In vitro metalloprotease inhibition, fluorogenic peptide substrate (recombinant human MMP-13, APMA activated); conditions: recombinant human MMP-13, room temperature, pH 7.5, 4 μM substrate
Measure Name: IC50 (nM)

These solved cases illustrate the format of a correct answer.
COc1ccc(S(=O)(=O)C[C@H](C)CS)cc1 [Example 14] : 190
CCC(CCS)S(=O)(=O)c1ccc(OC)cc1 (stereo not shown) [Example 16] : 4
CC(C)(C)OC(=O)COc1ccc(S(=O)(=O)CCCS)cc1 [Example 5] : 400
COc1ccc(S(=O)(=O)CC(C)S)cc1 (racemic) [Example 1] : 400
COc1ccc(S(=O)(=O)CCC(S)c2ccccc2)cc1 (stereo not shown) [Example 24] : 48

(1) CCCCOc1ccc(S(=O)(=O)CCCS)cc1 [Example 27]
(2) COc1ccc(S(=O)(=O)C2CCC(S)C2)cc1 (stereo not shown) [Example 9]
(3) COc1ccc(S(=O)(=O)C(C)CCS)cc1 (stereo not shown) [Example 19]
(4) CCCCCC(CCS)S(=O)(=O)c1ccc(OC)cc1 (stereo not shown) [Example 22]
(5) COc1ccc(S(=O)(=O)CC(CS)NC(C)=O)cc1 (stereo not shown) [Example 32]
In: Order the items by recorded IC50; the first position goes to the largest value. When ranking, write the labels in the order the request describes.
Out: 2, 3, 5, 1, 4

====

Biological target: hMMP 1 (Homo sapiens)
Sequence (P03956 100-469): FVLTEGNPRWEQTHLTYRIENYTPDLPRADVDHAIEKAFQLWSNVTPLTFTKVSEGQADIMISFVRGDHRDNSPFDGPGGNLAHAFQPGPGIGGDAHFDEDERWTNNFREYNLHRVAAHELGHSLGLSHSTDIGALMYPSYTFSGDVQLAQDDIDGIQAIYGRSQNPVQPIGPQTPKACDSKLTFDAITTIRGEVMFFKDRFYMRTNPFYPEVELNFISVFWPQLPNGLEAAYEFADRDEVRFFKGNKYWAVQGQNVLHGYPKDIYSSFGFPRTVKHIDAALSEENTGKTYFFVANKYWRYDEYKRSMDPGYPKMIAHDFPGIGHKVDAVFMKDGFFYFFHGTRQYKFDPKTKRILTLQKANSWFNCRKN
Assay: In vitro metalloprotease inhibition, fluorogenic peptide substrate (recombinant human MMP-1, APMA activated)
Details: human MMP-1, room temperature, pH 7.5, 4 μM substrate
pIC50: −log10 of the molar value.
Measure Name: pIC50

COc1ccc(S(=O)(=O)CCCS)cc1 : 5.10

(I) COc1ccc(S(=O)(=O)C(C)CCS)cc1 (centres unmarked)
(II) O=S(=O)(CCCS)c1ccc(Oc2ccccc2)cc1
In: Pick one, I or II : lowest reported pIC50. Lab log: write the label of the selected item as the result.
Out: I

====

target: hMMP 13 (Homo sapiens, UniProt P45452); test: In vitro metalloprotease inhibition, fluorogenic peptide substrate (recombinant human MMP-13, APMA activated); settings: recombinant human MMP-13, room temperature, pH 7.5, 4 μM substrate
Measure Name: IC50 (nM)

Answered examples (5):
CCCCOc1ccc(S(=O)(=O)C(CCS)Cc2ccccc2)cc1 (stereo not shown) : 1.5
CNC(=O)CC(CCS)S(=O)(=O)c1ccc(OC)cc1 (stereo not shown) : 35
O=S(=O)(CCCS)c1ccccc1 : 900
CCCC[C@]1(S(=O)(=O)c2ccc(OC)cc2)CCC[C@@H](S)C1 : 1300
O=S(=O)(CCCS)c1ccc(OCCCc2ccccc2)cc1 : 1000

(A) O=S(=O)(CCCS)c1ccc(Oc2ccccc2)cc1
(B) CCCC(CCS)S(=O)(=O)c1ccc(OC)cc1 (stereo not shown)
(C) COc1ccc(S(=O)(=O)CCCCS)cc1
In: Form: Sort by [IC50] Order [ ascending ] Write the labels out in the order the request specifies.
Out: A, B, C
(A: 0.6 nM, B: 7 nM, C: 700 nM)
